TESTED ON: cynomolgus monkey MuSK (cynomolgus monkey, UniProt A0A2K5USF6 24-487)
Sequence (A0A2K5USF6 entry or part of it): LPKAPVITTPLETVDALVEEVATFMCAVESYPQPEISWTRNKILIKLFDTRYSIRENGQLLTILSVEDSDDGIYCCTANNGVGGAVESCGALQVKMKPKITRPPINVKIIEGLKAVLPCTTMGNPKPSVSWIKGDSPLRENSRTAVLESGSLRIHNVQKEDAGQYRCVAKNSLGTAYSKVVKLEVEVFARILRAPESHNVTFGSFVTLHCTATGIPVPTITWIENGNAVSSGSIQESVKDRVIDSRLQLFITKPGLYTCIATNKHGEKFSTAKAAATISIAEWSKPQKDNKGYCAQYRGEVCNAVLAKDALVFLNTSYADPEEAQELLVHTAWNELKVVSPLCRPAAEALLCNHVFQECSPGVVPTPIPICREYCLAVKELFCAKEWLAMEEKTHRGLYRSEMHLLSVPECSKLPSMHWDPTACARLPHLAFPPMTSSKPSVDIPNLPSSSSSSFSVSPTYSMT
MEASUREMENT NOTES: Biacore, MuSK on chip, association pH 7.4, dissociation pH 5.5

BINDER: 3B2g1m2 (antibody, human IgG1, V domains shown, human IgG1-LALA backbone; produced in HEK293 cells) VH: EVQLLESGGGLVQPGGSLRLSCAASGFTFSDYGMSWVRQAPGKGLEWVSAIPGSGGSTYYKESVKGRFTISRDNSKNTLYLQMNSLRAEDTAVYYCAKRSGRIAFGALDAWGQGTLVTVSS VL: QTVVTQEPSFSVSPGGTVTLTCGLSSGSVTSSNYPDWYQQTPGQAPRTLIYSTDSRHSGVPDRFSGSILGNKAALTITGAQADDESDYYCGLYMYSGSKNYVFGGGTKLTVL
R0, RU: 148
//
BINDER: 3B2g2m4 (antibody, human IgG1, V domains shown, human IgG1-LALA backbone; produced in HEK293 cells) VH: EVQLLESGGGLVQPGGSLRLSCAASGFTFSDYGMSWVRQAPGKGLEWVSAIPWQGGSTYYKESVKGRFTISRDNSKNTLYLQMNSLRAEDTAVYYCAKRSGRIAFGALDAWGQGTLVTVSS VL: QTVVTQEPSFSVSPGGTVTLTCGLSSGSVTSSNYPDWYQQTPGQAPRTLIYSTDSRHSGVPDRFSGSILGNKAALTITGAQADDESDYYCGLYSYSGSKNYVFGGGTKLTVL
R0, RU: 148
//
BINDER: 3B2g1m1 (antibody, human IgG1, V domains shown, human IgG1-LALA backbone; produced in HEK293 cells) VH: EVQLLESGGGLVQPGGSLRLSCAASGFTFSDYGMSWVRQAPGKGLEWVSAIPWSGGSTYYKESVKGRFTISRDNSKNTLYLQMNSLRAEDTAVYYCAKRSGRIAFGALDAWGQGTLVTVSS VL: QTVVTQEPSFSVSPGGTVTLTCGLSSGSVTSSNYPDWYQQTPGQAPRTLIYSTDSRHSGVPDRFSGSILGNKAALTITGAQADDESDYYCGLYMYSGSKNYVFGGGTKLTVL
R0, RU: 147
//
BINDER: 3B2 (antibody, V domains shown, human IgG1 with the LALA mutations (L234A, L235A); produced in HEK293 cells; also called 3B2 mAb; parental 3B2 Ab) VH: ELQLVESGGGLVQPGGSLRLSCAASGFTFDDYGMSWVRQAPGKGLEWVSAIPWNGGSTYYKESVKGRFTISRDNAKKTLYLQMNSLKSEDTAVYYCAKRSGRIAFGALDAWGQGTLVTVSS VL: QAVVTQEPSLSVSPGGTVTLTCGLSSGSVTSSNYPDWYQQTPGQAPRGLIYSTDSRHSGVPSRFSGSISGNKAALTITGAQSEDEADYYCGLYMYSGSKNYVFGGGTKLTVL
R0, RU: 149

These measurements were taken from patent US20230151091A1.
